These measurements were taken from ChEMBL document CHEMBL5137114.

Target: Serine/threonine-protein kinase 4 (Homo sapiens)
Sequence (Q13043 whole entry): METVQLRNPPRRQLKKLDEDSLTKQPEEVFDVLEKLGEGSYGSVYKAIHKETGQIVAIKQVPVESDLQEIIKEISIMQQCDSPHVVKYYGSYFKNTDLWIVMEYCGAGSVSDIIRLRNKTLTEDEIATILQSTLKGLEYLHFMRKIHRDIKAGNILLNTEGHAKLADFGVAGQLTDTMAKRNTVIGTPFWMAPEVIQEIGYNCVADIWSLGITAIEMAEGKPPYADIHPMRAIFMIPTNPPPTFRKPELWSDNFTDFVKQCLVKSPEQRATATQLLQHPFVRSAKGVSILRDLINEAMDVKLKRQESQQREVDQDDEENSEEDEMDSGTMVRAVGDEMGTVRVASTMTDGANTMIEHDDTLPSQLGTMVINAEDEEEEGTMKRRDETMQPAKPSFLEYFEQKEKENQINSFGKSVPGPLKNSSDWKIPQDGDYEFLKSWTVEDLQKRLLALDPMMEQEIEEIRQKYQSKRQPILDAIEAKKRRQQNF
Test: Inhibition of recombinant full length N-terminal GST -tagged human MST1 expressed in baculovirus infected Sf9 insect cells using KKSRGDYMTMQIG as substrate incubated for 1 hr in presence of ATP by ADP-Glo luminescent assay
pIC50: −log10 of the molar value.
Lab note: anything with pIC50 at or over 7 counts as YES; the rest go in NO.

>  <compound>
CN1C(=O)C(c2ccc(F)cc2)N(C)c2nc(Nc3ccc(S(N)(=O)=O)cc3)ncc21 (centres undefined)

>  <label.value>
NO

$$$$
>  <compound>
Cc1ccccc1C1C(=O)N(C)c2cnc(Nc3ccc(S(=O)(=O)N(C)C)cc3)nc2N1C (centres undefined)

>  <label.value>
NO

$$$$
>  <compound>
CN1C(=O)C(c2ccccc2)N(C)c2nc(Nc3ccc(S(N)(=O)=O)cc3)ncc21 (centres undefined)

>  <label.value>
NO

$$$$
>  <compound>
CN1C(=O)C(c2cccc(Cl)c2)N(C)c2nc(Nc3ccc(S(N)(=O)=O)cc3)ncc21 (centres undefined)

>  <label.value>
NO

$$$$
>  <compound>
COc1ccccc1C1C(=O)N(C)c2cnc(Nc3ccc(S(N)(=O)=O)cc3)nc2N1C (centres undefined)

>  <label.value>
NO

$$$$
>  <compound>
Cc1ccccc1C1C(=O)N(C)c2cnc(Nc3ccc(S(=O)(=O)NCC4CC4)cc3)nc2N1C (centres undefined)

>  <label.value>
YES

$$$$
